- TEST_PARAMETERS: in 2-methoxyethanol, 303.15 K
MEASURED_ENDPOINT: solubility (mole fraction)
Returns: the value as a bare number; no unit string appended.

For the molecule CN(C)CCC=C1c2ccccc2CCc2ccccc21.Cl , give its measured solubility (mole fraction) value.
0.155

----------
- TEST_PARAMETERS: in n-propanol, 288.15 K
MEASURED_ENDPOINT: solubility (mole fraction)

Given CN(C)CCC=C1c2ccccc2CCc2ccccc21.Cl , respond with its solubility (mole fraction).
0.0357

----------
- TEST_PARAMETERS: in n-pentanol, 298.15 K
MEASURED_ENDPOINT: solubility (mole fraction)
API note: the answer field is a bare number with no unit suffix.

Give reported solubility (mole fraction) value for CN(C)CCC=C1c2ccccc2CCc2ccccc21.Cl
0.0321

----------
- TEST_PARAMETERS: in 2-methoxyethanol, 308.15 K
MEASURED_ENDPOINT: solubility (mole fraction)

Specify measured solubility (mole fraction) for CN(C)CCC=C1c2ccccc2CCc2ccccc21.Cl .
0.162

----------
- TEST_PARAMETERS: in 2-ethoxyethanol, 288.15 K
MEASURED_ENDPOINT: solubility (mole fraction)
API note: the answer field is a bare number with no unit suffix.

Item CN(C)CCC=C1c2ccccc2CCc2ccccc21.Cl : provide solubility (mole fraction)
0.0954

----------
- TEST_PARAMETERS: in DMF, 298.15 K
MEASURED_ENDPOINT: solubility (mole fraction)
// return just the number, without any unit appended

Please look at this molecule and report its solubility (mole fraction): CN(C)CCC=C1c2ccccc2CCc2ccccc21.Cl
0.0423

----------
- TEST_PARAMETERS: in 2-ethoxyethanol, 298.15 K
MEASURED_ENDPOINT: solubility (mole fraction)
I'd appreciate a reply containing only the number, no unit.

Please give measured solubility (mole fraction) of the following entry: CN(C)CCC=C1c2ccccc2CCc2ccccc21.Cl
0.108

----------
- TEST_PARAMETERS: in n-pentanol, 283.15 K
MEASURED_ENDPOINT: solubility (mole fraction)
Write no unit; give the number alone.

Identify measured solubility (mole fraction) associated with CN(C)CCC=C1c2ccccc2CCc2ccccc21.Cl
0.0162

----------
- TEST_PARAMETERS: in 2-propoxyethanol, 313.15 K
MEASURED_ENDPOINT: solubility (mole fraction)

Please report solubility (mole fraction) for the following compound: CN(C)CCC=C1c2ccccc2CCc2ccccc21.Cl
0.103

----------
- TEST_PARAMETERS: in methanol, 323.15 K
MEASURED_ENDPOINT: solubility (mole fraction)
Kindly provide the number alone.

Determine from records and report solubility (mole fraction) for CN(C)CCC=C1c2ccccc2CCc2ccccc21.Cl
0.207

----------
- TEST_PARAMETERS: in NMP, 298.15 K
MEASURED_ENDPOINT: solubility (mole fraction)
Lab note: jot down the number only; don't add units.

Fill in reported solubility (mole fraction) for this entry: CN(C)CCC=C1c2ccccc2CCc2ccccc21.Cl
0.0448

----------
- TEST_PARAMETERS: in ethanol, 308.15 K
MEASURED_ENDPOINT: solubility (mole fraction)

Return the recorded solubility (mole fraction) value; entry: CN(C)CCC=C1c2ccccc2CCc2ccccc21.Cl
0.108

----------
- TEST_PARAMETERS: in DMF, 313.15 K
MEASURED_ENDPOINT: solubility (mole fraction)
The reply should be a number, written without any unit.

Given the compound CN(C)CCC=C1c2ccccc2CCc2ccccc21.Cl , write its reported solubility (mole fraction).
0.0557
